Where these numbers come from: paper PMC10397247

experimentalSystem: T1, 4H3921-AA
T1 chain: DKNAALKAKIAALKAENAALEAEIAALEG
experimentDescription: two-hybrid library CCmax;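 note: natural log of median RNA to DNA barcode read ratio; higher means stronger binding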
conditionParameters: mean of both orientations
quantityName: interaction score

> print(dat)
                                     binder       quantityname  result
1  DKIAALEAKIAALEAKNAALEAEIAALKG [4H2354-AA]  interaction score   -2.02
2  DKIAALKAEIAALKAENAALEAEIAALKG [4H2642-AA]  interaction score   -1.11
3  DENAALEAKIAALKAEIAALEAKNAALKG [4H1352-AA]  interaction score   -1.28
4  DKNAALKAKIAALEAEIAALEAENAALKG [4H3844-AA]  interaction score   -1.65
5  DKNAALKAEIAALEAKIAALKAENAALEG [4H3627-AA]  interaction score   -1.63
6  DENAALKAKIAALKAEIAALKAENAALEG [4H1867-AA]  interaction score   -1.88
7  DKIAALEAEIAALKAKNAALEAKIAALEG [4H2165-AA]  interaction score   -1.58
8  DENAALKAEIAALKAKIAALEAENAALKG [4H1636-AA]  interaction score    -1.8

1 = DENAALEAENAALEAEIAALEAEIAALEG [4H1153-AA]
2 = DEIAALEAKIAALKAEIAALKAKNAALEG [4H335-AA]
In: Please choose the item with the lower interaction score value from this pair: 1 and 2 Mark your answer with the label of the selected entry.
Out: 1
